- experiment: Identification of antibody-drug conjugate (ADC) payloads which are substrates of ATP-binding cassette drug efflux transporters: ABCB1-HEK293-MDR-19 cell line
- condition_description: HEK293 ABCB1 (MDR-19) viability, CellTiter-Glo, 48 h
Records with an inconclusive call do not appear. Activity calls are given as the source filed them. The call rests on the fitted dose curve; in most records, active means well fitted inhibition curve with a large enough effect; inconclusive means small, poorly fitted or top-dose-only effect; inactive means flat fitted curve, though single readings scatter.
compounds and their reported Potency

Study these solved cases before continuing.
chemical_structure=CCN(C(C)=O)[C@H]1CO[C@@H](O[C@H]2[C@H](O[C@H]3C#C/C=C\C#C[C@]4(O)CC(=O)C(NC(=O)OC)=C3/C4=C\CSSSC)O[C@H](C)[C@@H](NO[C@H]3C[C@H](O)[C@H](SC(=O)c4c(C)c(I)c(O[C@@H]5O[C@@H](C)[C@H](O)[C@@H](OC)[C@H]5O)c(OC)c4OC)[C@@H](C)O3)[C@@H]2O)C[C@@H]1OC value_kind=Potency reading="748 nM (active)"
chemical_structure=CC(C)(C)OC(=O)Nc1ccc2[nH]c(C(=O)N3C[C@@H](CCl)c4c3cc(O)c3ccccc43)cc2c1 value_kind=Potency reading="9.4 nM (active)"
chemical_structure=COc1cccc2c1C(=O)c1c(O)c3c(c(O)c1C2=O)C[C@@](O)(C(=O)CO)C[C@@H]3O[C@H]1C[C@H]2[C@H](O[C@@H]3[C@@H](OC)OCCN32)[C@H](C)O1 value_kind=Potency reading="0.0941 nM (active)"
chemical_structure=CN(C)CCOc1ccc2[nH]c(C(=O)N3C[C@@H](CCl)c4c3cc(O)c3ccccc43)cc2c1 value_kind=Potency reading="0.4 nM (active)"

Req: Query (compound): `CCc1c2c(nc3ccc(O)cc13)-c1cc3c(c(=O)n1C2)COC(=O)[C@]3(O)CC` ; field requested: Potency
Resp: 11.8 nM (active)

Req: Repeat for the following compound: `COc1cccc2c1C(=O)c1c(O)c3c(c(O)c1C2=O)C[C@@](O)(C(=O)CO)C[C@@H]3O[C@H]1C[C@H](N)[C@H](O)[C@H](C)O1`
Resp: 748 nM (active)
